Test system: cpA neurons
Assay: extracellular single-sensillum electrophysiology: inhibition of CO2-responsive (cpA) neuronal activity
Settings: Table 16, single component alone; Inh = inhibitor
test.readout: Class (inhibitor class of the individual component)

[[record]]
compound = "CCCCCCCCO"
result = "Mild"

[[record]]
compound = "CC/C=C\\CCCCO [OLI0084, cis-5-octen-1-ol]"
result = "Mild"

[[record]]
compound = "CCC(=O)OCCc1ccccc1 [OLI0076, Phenethyl propionate]"
result = "Mod"

[[record]]
compound = "CCc1nccnc1OC"
result = "Mod"

[[record]]
compound = "CCCCC(=O)OCc1ccco1 [OLI0074, furfurylpentanoate]"
result = "Mod"

[[record]]
compound = "C=CCc1ccc(O)c(OC)c1"
result = "Mild"

[[record]]
compound = "CCC/C=C\\CCOC(C)=O [OLI0078, (Z)-hept-3-enylacetate]"
result = "Mild"

[[record]]
compound = "CCc1nccnc1CC"
result = "Strng"


* * *

Test system: female mosquitoes
Conditions: single compound, 2 mg/ml on filter paper, female mosquitoes, two hours
test.readout: % mortality with 2 mg/ml (%)

[[record]]
compound = "COC(/C=C/c1ccccc1)OC"
test_readout = "% mortality with 2 mg/ml"
number = 100

[[record]]
compound = "CC1=C2CCC(C)CC2OC1=O (centres unmarked)"
test_readout = "% mortality with 2 mg/ml"
number = 100

[[record]]
compound = "N#C/C=C/c1ccccc1"
test_readout = "% mortality with 2 mg/ml"
number = 100

[[record]]
compound = "CCCC1CCC(=O)O1 (centres unmarked)"
test_readout = "% mortality with 2 mg/ml"
number = 0

[[record]]
compound = "CC(=O)/C=C/C=C(C)C"
test_readout = "% mortality with 2 mg/ml"
number = 0

[[record]]
compound = "CCCCCC(=O)CC"
test_readout = "% mortality with 2 mg/ml"
number = 0

[[record]]
compound = "O=CCCc1ccccc1"
test_readout = "% mortality with 2 mg/ml"
number = 15

[[record]]
compound = "C/C=C(\\C)C=O [OLI0013, trans-2-methyl-2-butenal]"
test_readout = "% mortality with 2 mg/ml"
number = 0


* * *

Tested on: larvae
Test: larvicidal activity assay
Type: in vivo
Conditions: 0.25% compound, 24 hour exposure, dead larvae / total larvae; read-out: % Lethality with 0.25% compound conc.
Counter-ions that a name gives are not always drawn.
test.readout: pest or weed control at 0.25 %

[[record]]
compound = "CCc1nccnc1OC"
result = "100%"

[[record]]
compound = "CC(=O)c1ccc(C)o1"
result = "100%"

[[record]]
compound = "COc1ccccc1O"
result = "100%"

[[record]]
compound = "CC(C)C(=O)OCC=Cc1ccccc1 [OLI0117, cinnamyl isobutyrate]"
result = "100%"

[[record]]
compound = "COC(=O)C=Cc1ccccc1 [OLI0113, methyl cinnamate]"
result = "100%"

[[record]]
compound = "CCc1cnccn1"
result = "50%"

[[record]]
compound = "CCCCCC(C)=O"
result = "73%"

[[record]]
compound = "Cc1ccnc(C)c1"
result = "100%"

[[record]]
compound = "CC/C=C\\CCOC=O [OLI0096, cis-3-hexenyl formate]"
result = "30%"

[[record]]
compound = "C/C=C(\\C)C(=O)OC(CC)CCCCC (centres unmarked) [OLI0079, 1-ethylhexyl tiglate]"
result = "100%"

[[record]]
compound = "O=C1CCCC1"
result = "85%"


* * *

Test system: larvae
Assay: larvicidal activity assay
Type: in vivo
Conditions: 0.25% compound, 24 hour exposure, dead larvae / total larvae; read-out: % Lethality with 0.25% compound conc.
Below, each entry is listed with its recorded pest or weed control at 0.25 %.
test.readout: pest or weed control at 0.25 %

[[record]]
compound = "COC(=O)/C=C/c1ccccc1 [OLI0114, methyl trans-cinnamate]"
result = "100%"

[[record]]
compound = "Cc1ccc(C=O)o1"
result = "100%"

[[record]]
compound = "CC1OCCC1=O (stereo not drawn) [OLI0004, 2-methyltetrahydrofuran-3-one]"
result = "0%"


* * *

Below, each entry is listed with its recorded pest or weed control at 100 ppm.
Test system: larvae
Experiment: larvicidal activity assay
Type: in vivo
Settings: 24 h, read-out: % Lethality at 100 ppm
Structures can show the parent of a compound that is named as a salt.
test.readout: pest or weed control at 100 ppm (%)

[[record]]
compound = "CCCCOC=O [OLI0007, butyl formate]"
number = 0

[[record]]
compound = "c1ccc2[nH]ccc2c1"
number = 100

[[record]]
compound = "CCc1ccc(O)cc1"
number = 100

[[record]]
compound = "O=C/C=C/c1ccccc1 [OLI0065, trans-cinnamaldehyde]"
number = 0

[[record]]
compound = "CCCCCCOC=O [OLI0097, hexyl formate]"
number = 0

[[record]]
compound = "CC1CCC(C(C)C)C(O)C1 (centres unmarked)"
number = 0

[[record]]
compound = "CCCC(C)=O"
number = 0

[[record]]
compound = "CCCOC=O [OLI0063, propyl formate]"
number = 0


* * *

Test system: larvae
Test: larvicidal activity assay
Format: in vivo
Details: 0.25% compound, 24 hour exposure, dead larvae / total larvae; read-out: % Lethality with 0.25% compound conc.
// boundary case: pest or weed control at 0.25 % equal to 90% maps to criterion not met; strictly smaller maps to criterion met

[[record]]
compound = "CCC(=O)OC/C=C/c1ccccc1 [OLI0105, trans-cinnamyl propionate]"
class_assignment = "criterion not met"

[[record]]
compound = "CCCCCCOC(=O)CCC [OLI0119, hexyl butyrate]"
class_assignment = "criterion met"

[[record]]
compound = "CCC(=O)OCC=Cc1ccccc1 [OLI0109, cinnamyl propionate]"
class_assignment = "criterion not met"

[[record]]
compound = "CCc1nccnc1CC"
class_assignment = "criterion not met"

[[record]]
compound = "CCCCC=O"
class_assignment = "criterion met"

[[record]]
compound = "O=C(C=Cc1ccccc1)OCc1ccccc1 [OLI0120, benzyl cinnamate]"
class_assignment = "criterion met"

[[record]]
compound = "CCCCCCC(=O)OC [OLI0091, methyl heptanoate]"
class_assignment = "criterion met"

[[record]]
compound = "CC/C=C\\CCOC(C)=O [OLI0073, cis-3-hexenyl acetate]"
class_assignment = "criterion not met"

